# test-name: Rat pharmacokinetic studies
# Type: in vivo
# test-context: plasma, male SD rats, IV 1 mg/kg
quantity-name: clearance (mL/min/kg)
Express it in mL/min/kg; write the number only.

[ask] Fill in: clearance of O=C(NO)c1cnc(NC2(c3ccccc3)CC2)nc1 is ___
[reply] 100

[ask] What measured clearance goes with O=C(NO)c1cnc(NC2(c3cccc(F)c3)CCCCC2)nc1 ?
[reply] 38.3
